Values were extracted from ChEMBL document CHEMBL4818989.

# target.entity: Mucolipin-2 (Homo sapiens)
# Sequence (Q8IZK6 whole entry): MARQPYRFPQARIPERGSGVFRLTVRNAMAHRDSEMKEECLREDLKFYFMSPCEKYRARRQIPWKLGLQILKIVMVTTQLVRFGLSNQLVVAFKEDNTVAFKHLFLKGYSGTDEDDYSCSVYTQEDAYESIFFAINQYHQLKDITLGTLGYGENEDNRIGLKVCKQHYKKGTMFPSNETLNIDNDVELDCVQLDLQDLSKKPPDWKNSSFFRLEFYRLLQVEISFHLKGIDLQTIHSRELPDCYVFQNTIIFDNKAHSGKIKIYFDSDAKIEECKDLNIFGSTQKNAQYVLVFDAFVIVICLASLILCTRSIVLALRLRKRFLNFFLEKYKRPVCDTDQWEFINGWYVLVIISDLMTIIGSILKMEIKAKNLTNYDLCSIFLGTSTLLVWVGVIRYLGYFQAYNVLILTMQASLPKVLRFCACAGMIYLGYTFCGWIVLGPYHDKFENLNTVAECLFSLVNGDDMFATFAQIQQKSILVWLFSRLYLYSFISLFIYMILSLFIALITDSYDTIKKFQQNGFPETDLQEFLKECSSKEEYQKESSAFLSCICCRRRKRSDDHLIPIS
# experiment.notes: Activation of human TRPML2-YFP expressed in HEK293 cells incubated for 10 mins by Fluo-4 dye calcium imaging based FLIPR analysis
# Format: cell-based
# condition.description: read-out: EC50
For each of the compounds below, state its EC50.
Numbers only, in µM.

Example entries begin here.
> print(dat)
                                   compound  quantity.unit  quantitative.readout
1  COc1ccccc1N1CCN([C@H]2CCCC[C@@H]2NS(=O)(=O)c2ccccc2)CC1 (racemic)             µM                   3.3
2  O=S(=O)(N[C@H]1CCCC[C@@H]1N1CCN(c2cccc(C(F)(F)F)c2)CC1)c1ccccc1 (relative stereo)             µM                   9.1
3  O=S(=O)(N[C@H]1CCCC[C@@H]1N1CCN(CCc2ccccc2)CC1)c1ccccc1 (relative stereo)             µM                   3.6
4  O=S(=O)(N[C@H]1CCCC[C@@H]1N1CCN(c2ccccc2)CC1)c1ccccc1 (relative stereo)             µM                   3.6
5  Cc1ccc(CN2CCN([C@H]3CCCC[C@@H]3NS(=O)(=O)c3ccccc3)CC2)cc1 (relative stereo)             µM                   4.4

For every listed record, write down its EC50.
1. COc1ccccc1N1CCN([C@@H]2CCCC[C@@H]2NS(=O)(=O)c2ccccc2)CC1 (racemic)
2. COc1ccccc1C1CCN([C@H]2CCCC[C@@H]2NS(=O)(=O)c2ccccc2)CC1 (relative stereo)
3. COc1ccccc1N1CCN([C@@H]2CCCC[C@H]2NS(=O)(=O)c2ccccc2)CC1

9.4
3.9
2.7
